test system: Rattus norvegicus; assay: Antiarthritic activity in Lewis rat assessed as inhibition of adjuvant-induced paw swelling at 50 mg/kg, po qd for 13 days measured on day 14; assay type: functional
Give inhibition in vivo at 50 mg/kg for every item shown.
Answers are plain numbers, in %.

Use these answered entries as a reference point.
{"input_smiles": "CCCCC1C(=O)N(c2ccccc2)N(c2ccccc2)C1=O", "endpoint_name": "inhibition in vivo at 50 mg/kg", "measurement_units": "%", "reported": 78}
{"input_smiles": "CCC(=O)O[C@](Cc1ccccc1)(c1ccccc1)[C@H](C)CN(C)C", "endpoint_name": "inhibition in vivo at 50 mg/kg", "measurement_units": "%", "reported": 56.2}
{"input_smiles": "C=CCn1c(=O)n(-c2ccc3c(c2)OCO3)c2ncccc21", "endpoint_name": "inhibition in vivo at 50 mg/kg", "measurement_units": "%", "reported": 78.2}

Inquiry: Query (compound): O=c1[nH]c2cccnc2n1-c1ccc2c(c1)OCO2 ; field requested: inhibition in vivo at 50 mg/kg
Reply text: 68.3

###

system: Rattus norvegicus; assay: Analgesic activity in Sprague-Dawley rat brewer's yeast treated foot assessed as response threshold at 32 mg/kg, po; assay type: functional
For each of the compounds below, state its Activity.

Respectfully, I request Activity for each entry included below.
1. O=c1n(CCC2CCCCC2)c2cccnc2n1-c1ccc2c(c1)OCO2
2. O=C(O)c1ccc(-n2c(=O)[nH]c3cccnc32)cc1
3. Nc1cnc2c(c1)[nH]c(=O)n2-c1ccccc1F
4. CCCCNC(=O)n1c(=O)n(-c2ccc3c(c2)OCO3)c2ncccc21

Reply text:
["<25 mm", "<25 mm", "<25 mm", "<25 mm"]

###

For each entry below, report its Activity value.
test system: Rattus norvegicus; assay: Analgesic activity in Sprague-Dawley rat brewer's yeast treated foot assessed as response threshold at 32 mg/kg, po; assay type: functional

{"input_smiles": "CC(=O)n1c(=O)n(-c2ccc3c(c2)OCO3)c2ncccc21", "Activity": "25 mm"}

Items follow; give Activity for each.
1. C=CCn1c(=O)n(-c2ccc3c(c2)OCO3)c2ncncc21
2. COc1ccc(-n2c(=O)[nH]c3cccnc32)cc1OC
3. O=c1[nH]c2cccnc2n1-c1ccccc1Br
4. COC(=O)c1cnc2c(c1)[nH]c(=O)n2-c1ccc2c(c1)OCO2
5. c1cnc2c(c1)nnn2Cc1ccc2c(c1)OCO2
6. C=CCn1c(=O)n(-c2ccc3c(c2)OCO3)c2ncccc21.CI
7. CC(C)Cc1ccc(-n2c(=O)[nH]c3cccnc32)cc1
8. C=CCn1c(=O)n(-c2ccccc2F)c2ncccc21

Reply text:
1. <25 mm
2. <25 mm
3. 25 mm
4. <25 mm
5. <25 mm
6. <25 mm
7. <25 mm
8. 25 mm

State recorded Activity for all listed compounds.
1. CCCCCCn1c(=O)n(-c2ccc3c(c2)OCO3)c2ncccc21
2. COc1ccc(-n2c(=O)[nH]c3cccnc32)cc1
3. C=CCn1c(=O)n(-c2ccc3c(c2)OCO3)c2ccccc21

Reply text:
["25 mm", "<25 mm", "<25 mm"]

Working through the 3 compounds below one at a time, give Activity for each.
1. Fc1cccc(F)c1-n1nnc2cccnc21
2. O=C(C1CC1)n1c(=O)n(-c2ccc3c(c2)OCO3)c2ncccc21
3. C=CCn1c(=O)n(-c2ccc3c(c2)CCC3)c2ncccc21

Reply text:
1. 25 mm
2. <25 mm
3. <25 mm
